Biological target: 14-3-3γ (Homo sapiens)
Construct: made in house; host or cells: E. coli NiCo21 (DE3)
Sequence (P61981 whole entry): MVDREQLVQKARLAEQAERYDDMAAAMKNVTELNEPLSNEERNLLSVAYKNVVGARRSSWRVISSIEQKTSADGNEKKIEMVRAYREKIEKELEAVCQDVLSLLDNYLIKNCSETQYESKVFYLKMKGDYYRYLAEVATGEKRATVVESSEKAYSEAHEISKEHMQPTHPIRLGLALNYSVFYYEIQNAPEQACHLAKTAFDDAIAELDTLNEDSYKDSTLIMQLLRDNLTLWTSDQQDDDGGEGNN
Assay: Isothermal titration calorimetry (ITC) of 14-3-3 binding to peptide
Details: Table S6; ITC, 25 °C; run 2
Where a SMILES comes first, the peptide text is derived from it. [ ]: non-standard residue; d: D form. ξ: configuration not given here. Phe(4-NO2) = N[C@@H](Cc1ccc([N+](=O)[O-])cc1)C(=O)O; ξAla(4-thiazolyl) = NC(Cc1cscn1)C(=O)O; pS = N[C@@H](COP(=O)(O)O)C(=O)O; β3hS = N[C@@H](CO)CC(=O)O; Nva = CCC[C@H](N)C(=O)O; βAla = NCCC(=O)O
MEASURE_NAME: ΔH

The molecule CCC[C@H](NC(=O)[C@H](N)CCCCN)C(=O)N[C@@H](Cc1ccc([N+](=O)[O-])cc1)C(=O)NC(Cc1cscn1)C(=O)N[C@@H](COP(=O)(O)O)C(=O)N[C@@H](Cc1ccc(O)cc1)C(=O)N[C@@H](CO)CC(=O)NCCC(=O)N[C@@H](Cc1ccc([N+](=O)[O-])cc1)C(=O)N[C@@H](CCCCN)C(N)=O (stereo partly drawn) [4a] (H-[dK][Nva][Phe(4-NO2)][ξAla(4-thiazolyl)][pS]Y[β3hS][βAla][Phe(4-NO2)]K-NH2; N-terminus and C-terminus assumed) showed ΔH equal to -7,45 kcal mol^-1

###

Target: 14-3-3γ (Homo sapiens)
Construct: made in house; host or cells: E. coli NiCo21 (DE3)
Assay: Isothermal titration calorimetry (ITC) of 14-3-3 binding to peptide
Details: Table S6 (unit as in Table S5); ITC, 25 °C; average of two runs; read-out: Kd
Where a SMILES comes first, the peptide text is derived from it. [ ]: non-standard residue; d: D form. ξ: configuration not given here. Phe(4-NO2) = N[C@@H](Cc1ccc([N+](=O)[O-])cc1)C(=O)O; ξAla(4-thiazolyl) = NC(Cc1cscn1)C(=O)O; pS = N[C@@H](COP(=O)(O)O)C(=O)O; β3hS = N[C@@H](CO)CC(=O)O; Nva = CCC[C@H](N)C(=O)O; βAla = NCCC(=O)O
Would you mind telling me the reported Kd of each entry?
Number only, in nM; omit the unit.

The compound CCC[C@H](NC(=O)[C@H](N)CCCCN)C(=O)N[C@@H](Cc1ccc([N+](=O)[O-])cc1)C(=O)N[C@@H](C)C(=O)N[C@@H](COP(=O)(O)O)C(=O)N[C@@H](Cc1ccc([N+](=O)[O-])cc1)C(=O)N[C@@H](CO)CC(=O)NCCC(=O)N[C@@H](Cc1ccc([N+](=O)[O-])cc1)C(=O)N[C@@H](CCCCN)C(N)=O [3a] (H-[dK][Nva][Phe(4-NO2)]A[pS][Phe(4-NO2)][β3hS][βAla][Phe(4-NO2)]K-NH2; N-terminus and C-terminus assumed) showed Kd equal to 79.1

The compound CCC[C@H](NC(=O)[C@H](N)CCCCN)C(=O)N[C@@H](Cc1ccc([N+](=O)[O-])cc1)C(=O)NC(Cc1cscn1)C(=O)N[C@@H](COP(=O)(O)O)C(=O)N[C@@H](Cc1ccc([N+](=O)[O-])cc1)C(=O)N[C@@H](CO)CC(=O)NCCC(=O)N[C@@H](C)C(=O)N[C@@H](CCCCN)C(N)=O (stereo partly drawn) [5c] (H-[dK][Nva][Phe(4-NO2)][ξAla(4-thiazolyl)][pS][Phe(4-NO2)][β3hS][βAla]AK-NH2; N-terminus and C-terminus assumed) showed Kd equal to 3910

The compound CCC[C@H](NC(=O)[C@H](N)CCCCN)C(=O)N[C@@H](Cc1ccc([N+](=O)[O-])cc1)C(=O)NC(Cc1cscn1)C(=O)N[C@@H](COP(=O)(O)O)C(=O)N[C@@H](Cc1ccccc1)C(=O)N[C@@H](CO)CC(=O)NCCC(=O)N[C@@H](Cc1ccc([N+](=O)[O-])cc1)C(=O)N[C@@H](CCCCN)C(N)=O (stereo partly drawn) [4b] (H-[dK][Nva][Phe(4-NO2)][ξAla(4-thiazolyl)][pS]F[β3hS][βAla][Phe(4-NO2)]K-NH2; N-terminus and C-terminus assumed) showed Kd equal to 31.9

The compound CCC[C@H](NC(=O)[C@H](N)CCCCN)C(=O)N[C@@H](Cc1ccc([N+](=O)[O-])cc1)C(=O)NC(Cc1cscn1)C(=O)N[C@@H](COP(=O)(O)O)C(=O)N[C@@H](Cc1ccc([N+](=O)[O-])cc1)C(=O)N[C@@H](CO)CC(=O)NCCC(=O)N[C@@H](Cc1ccccc1)C(=O)N[C@@H](CCCCN)C(N)=O (stereo partly drawn) [5b] (H-[dK][Nva][Phe(4-NO2)][ξAla(4-thiazolyl)][pS][Phe(4-NO2)][β3hS][βAla]FK-NH2; N-terminus and C-terminus assumed) showed Kd equal to 1450

The compound CCC[C@H](NC(=O)[C@H](N)CCCCN)C(=O)N[C@@H](Cc1ccc([N+](=O)[O-])cc1)C(=O)NC(Cc1cscn1)C(=O)N[C@@H](COP(=O)(O)O)C(=O)N[C@@H](Cc1ccc(O)cc1)C(=O)N[C@@H](CO)CC(=O)NCCC(=O)N[C@@H](Cc1ccc([N+](=O)[O-])cc1)C(=O)N[C@@H](CCCCN)C(N)=O (stereo partly drawn) [4a] (H-[dK][Nva][Phe(4-NO2)][ξAla(4-thiazolyl)][pS]Y[β3hS][βAla][Phe(4-NO2)]K-NH2; N-terminus and C-terminus assumed) showed Kd equal to 93.6

The compound CCC[C@H](NC(=O)[C@H](N)CCCCN)C(=O)N[C@@H](Cc1ccc([N+](=O)[O-])cc1)C(=O)NC(Cc1cscn1)C(=O)N[C@@H](COP(=O)(O)O)C(=O)N[C@@H](Cc1ccc([N+](=O)[O-])cc1)C(=O)N[C@@H](CO)CC(=O)NCCC(=O)N[C@@H](Cc1ccc(O)cc1)C(=O)N[C@@H](CCCCN)C(N)=O (stereo partly drawn) [5a] (H-[dK][Nva][Phe(4-NO2)][ξAla(4-thiazolyl)][pS][Phe(4-NO2)][β3hS][βAla]YK-NH2; N-terminus and C-terminus assumed) showed Kd equal to 2060

The compound CCC[C@H](NC(=O)[C@H](N)CCCCN)C(=O)N[C@@H](Cc1ccc([N+](=O)[O-])cc1)C(=O)NC(Cc1cscn1)C(=O)N[C@@H](COP(=O)(O)O)C(=O)N[C@@H](C)C(=O)N[C@@H](CO)CC(=O)NCCC(=O)N[C@@H](Cc1ccc([N+](=O)[O-])cc1)C(=O)N[C@@H](CCCCN)C(N)=O (stereo partly drawn) [4c] (H-[dK][Nva][Phe(4-NO2)][ξAla(4-thiazolyl)][pS]A[β3hS][βAla][Phe(4-NO2)]K-NH2; N-terminus and C-terminus assumed) showed Kd equal to 764

###

Would you mind telling me the reported Fold change to previous of each entry?
Target: 14-3-3γ (Homo sapiens)
Construct: made in house; host or cells: E. coli NiCo21 (DE3)
Test: Fluorescence anisotropy (FA) binary binding study: 14-3-3 titrated to fluorescein-labelled peptide
Settings: Table S3; FA KD of peptide divided by KD of previous (one amino acid longer) peptide; mean of n = 3
Protocol: 14-3-3γ protein expression (FP/ITC experiments) A pPROEX HTb expression vector encoding the human 14-3-3 protein gamma (14-3-3γ) with an N-terminal his6-tag was transformed by heat shock into NiCo21 (DE3) competent cells. Single colonies were cultured in 50 mL LB medium (100 µg/mL ampicillin). After overnight incubation at 37 °C, cultures were transferred to 2 L TB media (100 µg/mL ampicillin, 1 mM MgCl2) and incubated at 37 °C until an OD600 nm of 0.8-1.2 was reached. […]
Where a SMILES comes first, the peptide text is derived from it. [ ]: non-standard residue; d: D form. The star is where a group is joined. ξ: configuration not given here. FITC = O=C1OC2(c3ccc(O)cc3Oc3cc(O)ccc32)c2ccc(NC(=S)*)cc21; Phe(4-NO2) = N[C@@H](Cc1ccc([N+](=O)[O-])cc1)C(=O)O; ξAla(4-thiazolyl) = NC(Cc1cscn1)C(=O)O; pS = N[C@@H](COP(=O)(O)O)C(=O)O; β3hS = N[C@@H](CO)CC(=O)O; Nva = CCC[C@H](N)C(=O)O; AEA = NCCOCC(=O)O; βAla = NCCC(=O)O

Recorded Fold change to previous for CCC[C@H](NC(=O)[C@@H](CCCCN)NC(=O)COCCNC(=S)Nc1ccc2c(c1)C(=O)OC21c2ccc(O)cc2Oc2cc(O)ccc21)C(=O)N[C@@H](Cc1ccc([N+](=O)[O-])cc1)C(=O)NC(Cc1cscn1)C(=O)N[C@@H](COP(=O)(O)O)C(=O)N[C@@H](Cc1ccc([N+](=O)[O-])cc1)C(=O)N[C@@H](CO)CC(=O)NCCC(N)=O (stereo partly drawn) [2f] ({FITC-AEA}-[dK][Nva][Phe(4-NO2)][ξAla(4-thiazolyl)][pS][Phe(4-NO2)][β3hS][βAla]-NH2) on 14-3-3γ (Homo sapiens) was 12,39

Recorded Fold change to previous for CCC[C@H](NC(=O)[C@@H](CCCCN)NC(=O)COCCNC(=S)Nc1ccc2c(c1)C(=O)OC21c2ccc(O)cc2Oc2cc(O)ccc21)C(=O)N[C@@H](Cc1ccc([N+](=O)[O-])cc1)C(=O)NC(Cc1cscn1)C(=O)N[C@@H](COP(=O)(O)O)C(=O)N[C@@H](Cc1ccc([N+](=O)[O-])cc1)C(=O)N[C@@H](CO)CC(=O)NCCC(=O)N[C@@H](Cc1ccc([N+](=O)[O-])cc1)C(N)=O (stereo partly drawn) [2e] ({FITC-AEA}-[dK][Nva][Phe(4-NO2)][ξAla(4-thiazolyl)][pS][Phe(4-NO2)][β3hS][βAla][Phe(4-NO2)]-NH2) on 14-3-3γ (Homo sapiens) was 5,55

Recorded Fold change to previous for CCC[C@H](NC(=O)[C@@H](CCCCN)NC(=O)COCCNC(=S)Nc1ccc2c(c1)C(=O)OC21c2ccc(O)cc2Oc2cc(O)ccc21)C(=O)N[C@@H](Cc1ccc([N+](=O)[O-])cc1)C(=O)NC(Cc1cscn1)C(=O)N[C@@H](COP(=O)(O)O)C(=O)N[C@@H](Cc1ccc([N+](=O)[O-])cc1)C(=O)N[C@@H](CO)CC(N)=O (stereo partly drawn) [2g] ({FITC-AEA}-[dK][Nva][Phe(4-NO2)][ξAla(4-thiazolyl)][pS][Phe(4-NO2)][β3hS]-NH2) on 14-3-3γ (Homo sapiens) was 1,85

Recorded Fold change to previous for CCC[C@H](NC(=O)[C@@H](CCCCN)NC(=O)COCCNC(=S)Nc1ccc2c(c1)C(=O)OC21c2ccc(O)cc2Oc2cc(O)ccc21)C(=O)N[C@@H](Cc1ccc([N+](=O)[O-])cc1)C(=O)NC(Cc1cscn1)C(=O)N[C@@H](COP(=O)(O)O)C(=O)N[C@@H](Cc1ccc([N+](=O)[O-])cc1)C(N)=O (some centres unmarked) [2h] ({FITC-AEA}-[dK][Nva][Phe(4-NO2)][ξAla(4-thiazolyl)][pS][Phe(4-NO2)]-NH2) on 14-3-3γ (Homo sapiens) was 2,92

Recorded Fold change to previous for CCC[C@H](NC(=O)[C@@H](CCCCN)NC(=O)COCCNC(=S)Nc1ccc2c(c1)C(=O)OC21c2ccc(O)cc2Oc2cc(O)ccc21)C(=O)N[C@@H](Cc1ccc([N+](=O)[O-])cc1)C(=O)NC(Cc1cscn1)C(=O)N[C@@H](COP(=O)(O)O)C(N)=O (some centres unmarked) [2i] ({FITC-AEA}-[dK][Nva][Phe(4-NO2)][ξAla(4-thiazolyl)][pS]-NH2) on 14-3-3γ (Homo sapiens) was 4,04
